Assay: endothelial E-selectin upregulation by compounds – imaging, HUVEC, cherry-picked samples, dose response (AID 977605);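 note: signal is the share of imaged cells scored positive for E-selectin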
Details: HUVEC E-selectin immunostaining, at 19.5 µM (top of the series), percent of TNF-alpha response over vehicle
MEASUREMENT_LABEL: activation (%)

- O=C(Nc1cc(C(F)(F)F)cc(C(F)(F)F)c1)Nc1cnn(-c2ccc([N+](=O)[O-])cc2)c1C(F)(F)F: 0.091
- CN(C1CCCCC1)S(=O)(=O)c1cn(C)c(=O)n(C)c1=O: -0.175
- CCCCSCCCNC(=O)C1CCC(CNS(=O)(=O)c2ccc(NC(C)=O)cc2)CC1 (centres undefined): 0.405
- C[C@@H]1CN([C@H](C)CO)C(=O)c2cc(NS(C)(=O)=O)ccc2O[C@@H]1CN(C)C(=O)Nc1ccccc1: -0.094
- C[C@H](CO)N1C[C@H](C)[C@H](CN(C)Cc2ccc(Cl)c(Cl)c2)Oc2c(NS(=O)(=O)c3cn(C)cn3)cccc2C1=O: -0.123
- COc1ccc(S(=O)(=O)Nc2ccc3c(c2)CC(=O)N([C@H](C)CO)C[C@H](C)[C@@H](CN(C)C(=O)NC2CCCCC2)O3)cc1: -0.163
- COc1ccc(OC)c(NC(=O)c2ccc(CSc3ncccn3)cc2)c1: 0.128
- Cc1cccc(CC(=O)c2c[nH]c3ccccc23)c1: -0.07
- Cc1ccccc1CN1CCN(S(=O)(=O)c2ccc(Cl)s2)CC1: 0.152
